- study system: LC3B F7A (human, UniProt Q9GZQ8 1-120, F7A)
- measurement description: ITC; MicroCal iTC200, 25 °C; proteins 0.25 mmol/L and peptides 3 mmol/L, dialyzed against buffer B (20 mmol/L Tris-HCl, 200 mmol/L NaCl, 1 mmol/L EDTA, pH 8.0); single binding site model
- condition summary: both partners purified
measurement label: Kd (µM)
Field: numeric (µM). Do not append units.

query: Please look up its Kd: DYESDDDSYEVLDLTE (FUNDC1 (Fun14 domain-containing protein 1), LIR and flanking residues 10-25; also called unphosphorylated FUNDC1 peptide; FUNDC1 peptide; source: synthetic peptide (GL Biochem, Shanghai)) [FUNDC1 LIR peptide 10-25, unphosphorylated]
result: 3.52
